Biological target: Melanocortin receptor 4 (Mus musculus, UniProt P56450)
Sequence (P56450 whole entry): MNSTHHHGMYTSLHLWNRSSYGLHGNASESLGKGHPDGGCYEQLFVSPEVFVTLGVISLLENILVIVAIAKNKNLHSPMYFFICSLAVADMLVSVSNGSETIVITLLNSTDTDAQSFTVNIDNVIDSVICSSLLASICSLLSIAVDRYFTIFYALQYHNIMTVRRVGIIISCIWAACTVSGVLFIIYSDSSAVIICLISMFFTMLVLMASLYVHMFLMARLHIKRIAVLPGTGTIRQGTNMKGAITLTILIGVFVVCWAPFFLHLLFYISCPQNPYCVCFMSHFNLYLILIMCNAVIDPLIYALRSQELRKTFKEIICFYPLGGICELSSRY
Assay: Antagonist activity at mouse melanocortin receptor 4 expressed in HEK293 cells assessed as inhibition of NDP-MSH-induced cAMP accumulation incubated for 2 hrs by cAMP Alpha-screen assay based Schild analysis
Assay type: functional, cell-based
Details: read-out: pA2 (converted)
Metric: Kb (nM)

In [3]: df
Out[3]:
                    structure_smiles_string                             tested_system  recorded_value
0  CC(=O)N[C@@H](Cc1c[nH]cn1)C(=O)N[C@@H](CCC(N)=O)C(=O)N[C@H](Cc1ccc(-c2ccccc2)cc1)C(=O)N1Cc2ccccc2C[C@H]1C(N)=O  Melanocortin receptor 4 (Mus musculus, UniProt P56450)           10000
1  CC(=O)N[C@@H](Cc1c[nH]cn1)C(=O)N[C@@H](CCC(N)=O)C(=O)N[C@H](Cc1ccc(-c2ccccc2)cc1)C(=O)N1Cc2ccccc2C[C@@H]1C(N)=O  Melanocortin receptor 4 (Mus musculus, UniProt P56450)            3980

A = CC(=O)N[C@H](C(=O)N[C@@H](CCCNC(=N)N)C(=O)N[C@H](Cc1ccc(-c2ccccc2)cc1)C(=O)N1Cc2ccccc2C[C@H]1C(N)=O)C(C)C
B = CC(=O)N[C@H](C(=O)N[C@@H](CCCNC(=N)N)C(=O)N[C@H](Cc1ccc(-c2ccccc2)cc1)C(=O)N1Cc2ccccc2C[C@@H]1C(N)=O)C(C)C
-- ask Could you kindly indicate whether A or B has the higher Kb value? Refer to your chosen entry by its label in the reply.
-- reply A
